Recorded viability, T/C, one value per entry.
- Tested on: DMS-114 complex spheroids with HUVEC/MSC, growth % test/control
- protocolDescription: Anticancer human tumor DMS-114 cell line growth inhibition [AhR];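 further: spheroids exposed to agents for 7 days before readout; 100% = DMSO vehicle control wells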
- recordedConditions: second compound 10 µM; first compound 1 µM; hits give low values
- Description: Multicellular complex tumor spheroid response to aryl hydrocarbon receptor antagonists in combination with a variety of drugs and investigational agents in selected tumor cell lines […] Compounds. […] If the clinical Cmax for an agent had not been determined, the highest concentration tested was 10 microM (Table 1). […]
Report the value in % with no unit label.

[[record]]
molecule = "COc1cccc2c1C(=O)c1c(O)c3c(c(O)c1C2=O)CC(O)(C(=O)CO)CC3OC1CC(N)C(O)C(C)O1 (centres undefined) + CC(CO)NC(=O)c1cc(-c2ccc(Cl)cc2)nn(-c2cnn(C)c2)c1=O"
metric = "viability, T/C"
resultunits = "%"
resultvalue = 0.38

[[record]]
molecule = "CC1COCCN1c1cc(-c2ccnn2C)c2ccnc(-c3ccn[nH]3)c2n1 (centres undefined) + Cc1cncc(-c2nc(NCCc3c[nH]c4ccccc34)c3ncn(C(C)C)c3n2)c1"
metric = "viability, T/C"
resultunits = "%"
resultvalue = 7.26

[[record]]
molecule = "NS(=O)(=O)OCC1CC(n2ccc3c(NC4CCc5ccccc54)ncnc32)CC1O (centres undefined) + CC(CO)NC(=O)c1cc(-c2ccc(Cl)cc2)nn(-c2cnn(C)c2)c1=O"
metric = "viability, T/C"
resultunits = "%"
resultvalue = 10.8

[[record]]
molecule = "Nc1ccn(C2OC(CO)C(O)C2(F)F)c(=O)n1 (centres undefined) + Cc1ccccc1N=Nc1ccc(NC(=O)c2ccnn2C)c(C)c1"
metric = "viability, T/C"
resultunits = "%"
resultvalue = 31.7

[[record]]
molecule = "Nc1ccn(C2OC(CO)C(O)C2(F)F)c(=O)n1 (centres undefined) + CC(CO)NC(=O)c1cc(-c2ccc(Cl)cc2)nn(-c2cnn(C)c2)c1=O"
metric = "viability, T/C"
resultunits = "%"
resultvalue = 11.3


Task item: Enter viability, T/C (test system DMS-114 complex spheroids with HUVEC/MSC, growth % test/control) for Nc1ccn(C2OC(CO)C(O)C2(F)F)c(=O)n1 (centres undefined) + Cc1cncc(-c2nc(NCCc3c[nH]c4ccccc34)c3ncn(C(C)C)c3n2)c1
Reply: 7.58

Task item: # assay system DMS-114 complex spheroids with HUVEC/MSC, growth % test/control: give viability, T/C of Nc1ncn(C2CC(O)C(CO)O2)c(=O)n1 (centres undefined) + CC(CO)NC(=O)c1cc(-c2ccc(Cl)cc2)nn(-c2cnn(C)c2)c1=O
Reply: 76.5

Task item: Answer briefly: viability, T/C recorded on DMS-114 complex spheroids with HUVEC/MSC, growth % test/control for CC1(C)CCC(CN2CCN(c3ccc(C(=O)NS(=O)(=O)c4ccc(NCC5CCOCC5)c([N+](=O)[O-])c4)c(Oc4cnc5[nH]ccc5c4)c3)CC2)=C(c2ccc(Cl)cc2)C1 + CC(CO)NC(=O)c1cc(-c2ccc(Cl)cc2)nn(-c2cnn(C)c2)c1=O
Reply: 106
